# measurement-target: P-4501A2 (Homo sapiens, UniProt P05177)
# Sequence (P05177 whole entry): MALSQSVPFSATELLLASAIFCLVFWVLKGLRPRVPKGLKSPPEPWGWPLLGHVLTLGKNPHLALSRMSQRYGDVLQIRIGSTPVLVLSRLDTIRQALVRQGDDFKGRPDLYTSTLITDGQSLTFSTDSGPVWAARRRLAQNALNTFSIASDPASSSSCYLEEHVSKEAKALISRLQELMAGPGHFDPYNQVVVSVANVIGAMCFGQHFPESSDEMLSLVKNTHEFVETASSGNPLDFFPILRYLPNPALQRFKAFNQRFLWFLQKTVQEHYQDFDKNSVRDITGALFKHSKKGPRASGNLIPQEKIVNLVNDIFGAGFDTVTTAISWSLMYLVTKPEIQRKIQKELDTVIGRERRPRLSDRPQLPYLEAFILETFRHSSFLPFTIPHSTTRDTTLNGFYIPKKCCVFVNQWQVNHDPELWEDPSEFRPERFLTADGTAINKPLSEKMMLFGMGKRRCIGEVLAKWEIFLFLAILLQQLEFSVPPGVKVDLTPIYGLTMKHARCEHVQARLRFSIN
# experimental-protocol: Inhibition of P-450 mediated caffeine metabolism to paraxanthine in human liver microsomes
# reported-conditions: human, liver microsomes
Quick list: activity at 0 h, 100 µM per entry.

{"compound": "Cc1nc2c(c(=O)n(CCCC[C@H](C)O)c(=O)n2C)n1C [CT2410S]", "activity at 0 h, 100 µM [%]": 101}
{"compound": "C[C@@H](O)CCCCn1c(=O)c2c(ncn2C)n(C)c1=O [LSF, reference compound]", "activity at 0 h, 100 µM [%]": 101}
{"compound": "Cc1nc2c([nH]1)c(=O)n(CCCC[C@@H](C)O)c(=O)n2Cc1ccco1 [CT2412R]", "activity at 0 h, 100 µM [%]": 101}
{"compound": "Cc1nc2c(c(=O)n(CCCC[C@@H](C)O)c(=O)n2C)n1C [CT2410R]", "activity at 0 h, 100 µM [%]": 92.8}
{"compound": "Cc1nc2c([nH]1)c(=O)n(CCCC[C@H](C)O)c(=O)n2Cc1ccco1 [CT2412S]", "activity at 0 h, 100 µM [%]": 98.7}
{"compound": "Cc1nc2c([nH]1)c(=O)n(CCCC[C@H](C)O)c(=O)n2C [CT2408S]", "activity at 0 h, 100 µM [%]": 97.2}
{"compound": "Cc1nc2c([nH]1)c(=O)n(CCCC[C@@H](C)O)c(=O)n2C [CT2408R]", "activity at 0 h, 100 µM [%]": 95.2}
